- RUN_DESCRIPTION: Drug uptake in iv dosed BALB/c athymic nude mouse kidney xenografted with human LNCaP cells treated with 68Ga-labeled compound measured after 1 hr by microPET imaging analysis
- Type: ADME, organism-based
- EXPERIMENTAL_SETUP: in vivo
READOUT_LABEL: SUV
Give the figure by itself; no unit, no explanation.

Worked cases, SUV given:
MOL_SMILES: O=C(O)CC[C@H](NC(=O)N[C@@H](CCCCNC(=O)c1ccc(CNC(=O)c2ccc(CNC(=O)CN3CCN(CC(=O)O)CCN(CC(=O)O)CCN(CC(=O)O)CC3)cc2)cc1)C(=O)O)C(=O)O
SUV: 3.16

MOL_SMILES: O=C(O)CC[C@H](NC(=O)N[C@@H](CCCCNC(=O)c1ccc(CNC(=O)c2ccc(CNC(=O)c3ccc(CNC(=O)c4ccc(CNC(=O)CN5CCN(CC(=O)O)CCN(CC(=O)O)CCN(CC(=O)O)CC5)cc4)cc3)cc2)cc1)C(=O)O)C(=O)O
SUV: 2.21

MOL_SMILES: O=C(O)CC[C@H](NC(=O)N[C@@H](CCCCNC(=O)c1ccc(CNC(=O)c2ccc(CNC(=O)c3ccc(CNC(=O)CN4CCN(CC(=O)O)CCN(CC(=O)O)CCN(CC(=O)O)CC4)cc3)cc2)cc1)C(=O)O)C(=O)O
SUV: 4.16

Input line: Bench note: what SUV did "O=C(O)CC[C@H](NC(=O)N[C@@H](CCCCNC(=O)[C@@H](Cc1ccc2ccccc2c1)NC(=O)[C@H]1CC[C@H](CNC(=O)CN2CCN(CC(=O)O)CCN(CC(=O)O)CCN(CC(=O)O)CC2)CC1)C(=O)O)C(=O)O" show?
Output line: 3.98

Input line: Name the recorded SUV for "O=C(O)CC[C@H](NC(=O)N[C@@H](CCCCNC(=O)CCCCCNC(=O)c1ccc(CNC(=O)CN2CCN(CC(=O)O)CCN(CC(=O)O)CCN(CC(=O)O)CC2)cc1)C(=O)O)C(=O)O" .
Output line: 4.7

Input line: # SUV lookup, item "O=C(O)CC[C@H](NC(=O)N[C@@H](CCCCNC(=O)[C@H]1CC[C@H](CNC(=O)c2ccc(CNC(=O)CN3CCN(CC(=O)O)CCN(CC(=O)O)CCN(CC(=O)O)CC3)cc2)CC1)C(=O)O)C(=O)O"
Output line: 8.1

Input line: Returns the measured SUV for the input compound. Input: "O=C(O)CC[C@H](NC(=O)N[C@@H](CCCCNC(=O)[C@H]1CC[C@H](CNC(=O)[C@H]2CC[C@H](CNC(=O)CN3CCN(CC(=O)O)CCN(CC(=O)O)CCN(CC(=O)O)CC3)CC2)CC1)C(=O)O)C(=O)O"
Output line: 4.29

Input line: Fill blank: measured SUV of the compound "O=C(O)CC[C@H](NC(=O)N[C@@H](CCCCNC(=O)[C@H](Cc1ccc(-c2ccccc2)cc1)NC(=O)CN1CCN(CC(=O)O)CCN(CC(=O)O)CCN(CC(=O)O)CC1)C(=O)O)C(=O)O" is ____.
Output line: 6.57

Input line: // lookup SUV for "O=C(O)CC[C@H](NC(=O)N[C@@H](CCCCNC(=O)c1ccc(CNC(=O)CN2CCN(CC(=O)O)CCN(CC(=O)O)CCN(CC(=O)O)CC2)cc1)C(=O)O)C(=O)O"
Output line: 2.68

----------
- TESTED_ON: Glutamate carboxypeptidase 2 (Homo sapiens)
- RUN_DESCRIPTION: Binding affinity to PSMA in human LNCaP cells after 45 mins in presence of 68Ga-labeled PSMA-10 by gamma counting assay
- Sequence (Q04609 whole entry): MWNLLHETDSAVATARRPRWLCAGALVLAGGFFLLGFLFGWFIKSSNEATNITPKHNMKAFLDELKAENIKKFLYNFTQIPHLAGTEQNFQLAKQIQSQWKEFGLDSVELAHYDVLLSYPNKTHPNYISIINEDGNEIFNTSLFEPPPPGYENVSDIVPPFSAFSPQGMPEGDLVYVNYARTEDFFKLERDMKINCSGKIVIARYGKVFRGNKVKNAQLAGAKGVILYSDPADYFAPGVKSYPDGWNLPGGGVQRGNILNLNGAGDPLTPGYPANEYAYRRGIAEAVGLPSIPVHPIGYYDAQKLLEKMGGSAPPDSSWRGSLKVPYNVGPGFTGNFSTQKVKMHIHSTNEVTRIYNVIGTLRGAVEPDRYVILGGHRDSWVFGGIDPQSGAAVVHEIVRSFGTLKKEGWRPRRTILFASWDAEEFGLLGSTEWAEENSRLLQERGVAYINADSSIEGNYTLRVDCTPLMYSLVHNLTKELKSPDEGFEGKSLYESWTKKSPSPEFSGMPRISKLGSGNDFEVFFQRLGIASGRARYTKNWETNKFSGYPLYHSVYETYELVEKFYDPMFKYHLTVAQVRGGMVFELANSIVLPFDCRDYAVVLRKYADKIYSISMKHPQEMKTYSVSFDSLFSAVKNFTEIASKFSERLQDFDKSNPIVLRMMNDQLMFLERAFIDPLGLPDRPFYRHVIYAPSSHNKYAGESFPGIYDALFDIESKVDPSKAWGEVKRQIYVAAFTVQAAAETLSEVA
READOUT_LABEL: Ki
Please don't drop the unit; write it after the number.

Would you please look over these solved cases?
COMPOUND: O=C(O)CC[C@H](NC(=O)N[C@@H](CCCCNC(=O)[C@@H](Cc1ccc2ccccc2c1)NC(=O)[C@H]1CC[C@H](CNC(=O)CN2CCN(CC(=O)O)CCN(CC(=O)O)CCN(CC(=O)O)CC2)CC1)C(=O)O)C(=O)O
Ki: 8.86 nM

COMPOUND: O=C(O)CC[C@H](NC(=O)N[C@@H](CCCCNC(=O)[C@H](Cc1ccc2ccccc2c1)NC(=O)CN1CCN(CC(=O)O)CCN(CC(=O)O)CCN(CC(=O)O)CC1)C(=O)O)C(=O)O
Ki: 28.6 nM

Query compound follows.
Input line: Quick one: Ki of "O=C(O)CC[C@H](NC(=O)N[C@@H](CCCCNC(=O)[C@H]1CC[C@H](CNC(=O)CN2CCN(CC(=O)O)CCN(CC(=O)O)CCN(CC(=O)O)CC2)CC1)C(=O)O)C(=O)O" ?
Output line: 9.33 nM

----------
This section presents molecules with their documented SUV values.
- RUN_DESCRIPTION: Drug uptake in iv dosed BALB/c athymic nude mouse kidney xenografted with human LNCaP cells treated with 68Ga-labeled compound measured after 1 hr by microPET imaging analysis
- Type: ADME, organism-based
- EXPERIMENTAL_SETUP: in vivo

Use these answered entries as a reference point.
MOL_SMILES: O=C(O)CC[C@H](NC(=O)N[C@@H](CCCCNC(=O)[C@H]1CC[C@H](CNC(=O)[C@H](Cc2ccc3ccccc3c2)NC(=O)CN2CCN(CC(=O)O)CCN(CC(=O)O)CCN(CC(=O)O)CC2)CC1)C(=O)O)C(=O)O
SUV: 3.62
--
MOL_SMILES: O=C(O)CC[C@H](NC(=O)N[C@@H](CCCCNC(=O)[C@H](Cc1cccc2ccccc12)NC(=O)[C@H]1CC[C@H](CNC(=O)CN2CCN(CC(=O)O)CCN(CC(=O)O)CCN(CC(=O)O)CC2)CC1)C(=O)O)C(=O)O
SUV: 2.15
--
MOL_SMILES: O=C(O)CC[C@H](NC(=O)N[C@@H](CCCCNC(=O)[C@H](Cc1ccc2ccccc2c1)NC(=O)c1ccc(CNC(=O)CN2CCN(CC(=O)O)CCN(CC(=O)O)CCN(CC(=O)O)CC2)cc1)C(=O)O)C(=O)O
SUV: 3.63
--
MOL_SMILES: O=C(O)CC[C@H](NC(=O)N[C@@H](CCCCNC(=O)[C@H]1CC[C@H](CNC(=O)CN2CCN(CC(=O)O)CCN(CC(=O)O)CCN(CC(=O)O)CC2)CC1)C(=O)O)C(=O)O
SUV: 6.86

Input line: Find the recorded SUV belonging to "O=C(O)CC[C@H](NC(=O)N[C@@H](CCCCNC(=O)[C@H](Cc1ccc2ccccc2c1)NC(=O)CN1CCN(CC(=O)O)CCN(CC(=O)O)CCN(CC(=O)O)CC1)C(=O)O)C(=O)O" and report it.
Output line: 4.79

Input line: Please give the measured SUV for this molecule: "O=C(O)CC[C@H](NC(=O)N[C@@H](CCCCNC(=O)[C@H]1CC[C@H](CNC(=O)[C@H]2CC[C@H](CNC(=O)[C@H]3CC[C@H](CNC(=O)CN4CCN(CC(=O)O)CCN(CC(=O)O)CCN(CC(=O)O)CC4)CC3)CC2)CC1)C(=O)O)C(=O)O"
Output line: 2.91

----------
Measured specific cell surface binding (% of applied activity per 10^6 cells) accompanies every entry in the list below.
- TESTED_ON: Glutamate carboxypeptidase 2 (Homo sapiens, UniProt Q04609)
- RUN_DESCRIPTION: Inhibition of PSMA in human LNCaP cells assessed as cell surface binding per 10^6 cells using 177Lu-labeled compound after 45 mins by gamma counting analysis
- Format: cell-based
- Sequence (Q04609 whole entry, looked up): as the sequence (Q04609 whole entry) above
Output spec: scalar in %, unitless text.

Here's what some known entries look like.
COMPOUND: O=C(O)CC[C@H](NC(=O)N[C@@H](CCCCNC(=O)[C@H](Cc1ccc2ccccc2c1)NC(=O)c1ccc(CNC(=O)CN2CCN(CC(=O)O)CCN(CC(=O)O)CCN(CC(=O)O)CC2)cc1)C(=O)O)C(=O)O
READOUT_VALUE: 16.8
--
COMPOUND: O=C(O)CC[C@H](NC(=O)N[C@@H](CCCCNC(=O)[C@H]1CC[C@H](CNC(=O)[C@H]2CC[C@H](CNC(=O)[C@H]3CC[C@H](CNC(=O)CN4CCN(CC(=O)O)CCN(CC(=O)O)CCN(CC(=O)O)CC4)CC3)CC2)CC1)C(=O)O)C(=O)O
READOUT_VALUE: 0.23
--
COMPOUND: O=C(O)CCc1ccc(O)c(CN(CCN(CC(=O)O)Cc2cc(CCC(=O)NCCCCCC(=O)NCCCC[C@H](NC(=O)N[C@@H](CCC(=O)O)C(=O)O)C(=O)O)ccc2O)CC(=O)O)c1 [GOZETOTIDE]
READOUT_VALUE: 10.6

Input line: Can you look up the measured specific cell surface binding (% of applied activity per 10^6 cells) of O=C(O)CC[C@H](NC(=O)N[C@@H](CCCCNC(=O)[C@H](Cc1ccc2ccccc2c1)NC(=O)[C@H]1CC[C@H](CNC(=O)CN2CCN(CC(=O)O)CCN(CC(=O)O)CCN(CC(=O)O)CC2)CC1)C(=O)O)C(=O)O [VIPIVOTIDE TETRAXETAN] for me?
Output line: 11.4

Entry source: ChEMBL document CHEMBL5252516
